Reported Equilibrium association constant, A-T is given for each of the following compounds.
tested on: A-T base pair at N-terminal position of binding site 5′-A T N T A C A-3′ (N=A), 285 bp PCR product from plasmid pCW15; test: Quantitative DNase I footprint titration, A-T site; settings: 22° C., pH 7.0, 10 mM Tris-HCl, 10 mM KCl, 10 mM MgCl2, 5 mM CaCl2, mean of at least three, SD in parentheses

Requested read-out: Equilibrium association constant, A-T. Entry: CN(C)CCCNC(=O)CCNC(=O)c1cc(NC(=O)c2cc(NC(=O)c3cc(NC(=O)c4nc(NC(=O)CCCNC(=O)c5cc(NC(=O)c6cc(NC(=O)c7cc(NC(=O)c8sccc8O)cn7C)cn6C)cn5C)cn4C)cn3C)cn2C)cn1C [compound 5] 4.5 (0.6) × 10^9 M^−1

# lookup: Equilibrium association constant, A-T of CN(C)CCCNC(=O)CCNC(=O)c1cc(NC(=O)c2cc(NC(=O)c3cc(NC(=O)c4nc(NC(=O)CCCNC(=O)c5cc(NC(=O)c6cc(NC(=O)c7cc(NC(=O)c8nccn8C)cn7C)cn6C)cn5C)cn4C)cn3C)cn2C)cn1C [compound 9] 2.8 (0.2) × 10^9 M^−1

Requested field: Equilibrium association constant, A-T. Item: CC(=O)Nc1ccsc1C(=O)Nc1cc(C(=O)Nc2cc(C(=O)Nc3cc(C(=O)NCCCC(=O)Nc4cn(C)c(C(=O)Nc5cc(C(=O)Nc6cc(C(=O)Nc7cc(C(=O)NCCC(=O)NCCCN(C)C)n(C)c7)n(C)c6)n(C)c5)n4)n(C)c3)n(C)c2)n(C)c1 [compound 4] 2.9 (0.1) × 10^9 M^−1

Which measured Equilibrium association constant, A-T value corresponds to CN(C)CCCNC(=O)CCNC(=O)c1cc(NC(=O)c2cc(NC(=O)c3cc(NC(=O)c4nc(NC(=O)CCCNC(=O)c5cc(NC(=O)c6cc(NC(=O)c7cc(NC(=O)c8cccn8C)cn7C)cn6C)cn5C)cn4C)cn3C)cn2C)cn1C [compound 10] ? 3.1 (0.3) × 10^9 M^−1

Could you tell me which Equilibrium association constant, A-T is on file for COc1ccsc1C(=O)Nc1cc(C(=O)Nc2cc(C(=O)Nc3cc(C(=O)NCCCC(=O)Nc4cn(C)c(C(=O)Nc5cc(C(=O)Nc6cc(C(=O)Nc7cc(C(=O)NCCC(=O)NCCCN(C)C)n(C)c7)n(C)c6)n(C)c5)n4)n(C)c3)n(C)c2)n(C)c1 [compound 6] ? 3.2 (0.6) × 10^8 M^−1

Query: Equilibrium association constant, A-T; subject: CN(C)CCCNC(=O)CCNC(=O)c1cc(NC(=O)c2cc(NC(=O)c3cc(NC(=O)c4nc(NC(=O)CCCNC(=O)c5cc(NC(=O)c6cc(NC(=O)c7cc(NC(=O)c8cccs8)cn7C)cn6C)cn5C)cn4C)cn3C)cn2C)cn1C [compound 1] 4.7 (0.7) × 10^9 M^−1

---

tested on: T-A base pair at N-terminal position of binding site 5′-A T N T A C A-3′ (N=T), 285 bp PCR product from plasmid pCW15; test: Quantitative DNase I footprint titration, T-A site; settings: DNase I footprint titration, 22° C., pH 7.0, 10 mM Tris-HCl, 10 mM KCl, 10 mM MgCl2, 5 mM CaCl2; mean of at least three, SD in parentheses
Assay metric: Equilibrium association constant, T-A

For orientation, consider the following solved cases.
>  <Compound>
CN(C)CCCNC(=O)CCNC(=O)c1cc(NC(=O)c2cc(NC(=O)c3cc(NC(=O)c4nc(NC(=O)CCCNC(=O)c5cc(NC(=O)c6cc(NC(=O)c7cc(NC(=O)c8sccc8N)cn7C)cn6C)cn5C)cn4C)cn3C)cn2C)cn1C [compound 3]

>  <Equilibrium association constant, T-A>
6.3 (1.0) × 10^9 M^−1

$$$$
>  <Compound>
CN(C)CCCNC(=O)CCNC(=O)c1cc(NC(=O)c2cc(NC(=O)c3cc(NC(=O)c4nc(NC(=O)CCCNC(=O)c5cc(NC(=O)c6cc(NC(=O)c7cc(NC(=O)c8nccn8C)cn7C)cn6C)cn5C)cn4C)cn3C)cn2C)cn1C [compound 9]

>  <Equilibrium association constant, T-A>
3.8 (0.3) × 10^9 M^−1

$$$$
>  <Compound>
Cc1ccsc1C(=O)Nc1cc(C(=O)Nc2cc(C(=O)Nc3cc(C(=O)NCCCC(=O)Nc4cn(C)c(C(=O)Nc5cc(C(=O)Nc6cc(C(=O)Nc7cc(C(=O)NCCC(=O)NCCCN(C)C)n(C)c7)n(C)c6)n(C)c5)n4)n(C)c3)n(C)c2)n(C)c1 [compound 2]

>  <Equilibrium association constant, T-A>
2.3 (0.4) × 10^9 M^−1

$$$$
>  <Compound>
CN(C)CCCNC(=O)CCNC(=O)c1cc(NC(=O)c2cc(NC(=O)c3cc(NC(=O)c4nc(NC(=O)CCCNC(=O)c5cc(NC(=O)c6cc(NC(=O)c7cc(NC(=O)c8sccc8Cl)cn7C)cn6C)cn5C)cn4C)cn3C)cn2C)cn1C [compound 8]

>  <Equilibrium association constant, T-A>
1.3 (0.2) × 10^10 M^−1

$$$$
>  <Compound>
CN(C)CCCNC(=O)CCNC(=O)c1cc(NC(=O)c2cc(NC(=O)c3cc(NC(=O)c4nc(NC(=O)CCCNC(=O)c5cc(NC(=O)c6cc(NC(=O)c7cc(NC(=O)c8cccs8)cn7C)cn6C)cn5C)cn4C)cn3C)cn2C)cn1C [compound 1]

>  <Equilibrium association constant, T-A>
6.0 (0.7) × 10^9 M^−1

$$$$
>  <Compound>
CN(C)CCCNC(=O)CCNC(=O)c1cc(NC(=O)c2cc(NC(=O)c3cc(NC(=O)c4nc(NC(=O)CCCNC(=O)c5cc(NC(=O)c6cc(NC(=O)c7cc(NC(=O)c8sccc8F)cn7C)cn6C)cn5C)cn4C)cn3C)cn2C)cn1C [compound 7]

>  <Equilibrium association constant, T-A>
1.2 (0.2) × 10^10 M^−1

$$$$
>  <Compound>
CC(=O)Nc1ccsc1C(=O)Nc1cc(C(=O)Nc2cc(C(=O)Nc3cc(C(=O)NCCCC(=O)Nc4cn(C)c(C(=O)Nc5cc(C(=O)Nc6cc(C(=O)Nc7cc(C(=O)NCCC(=O)NCCCN(C)C)n(C)c7)n(C)c6)n(C)c5)n4)n(C)c3)n(C)c2)n(C)c1 [compound 4]

>  <Equilibrium association constant, T-A>
5.9 (0.3) × 10^9 M^−1

$$$$
>  <Compound>
CN(C)CCCNC(=O)CCNC(=O)c1cc(NC(=O)c2cc(NC(=O)c3cc(NC(=O)c4nc(NC(=O)CCCNC(=O)c5cc(NC(=O)c6cc(NC(=O)c7cc(NC(=O)c8sccc8O)cn7C)cn6C)cn5C)cn4C)cn3C)cn2C)cn1C [compound 5]

>  <Equilibrium association constant, T-A>
6.2 (0.6) × 10^9 M^−1

$$$$

Requested field: Equilibrium association constant, T-A. Item: CN(C)CCCNC(=O)CCNC(=O)c1cc(NC(=O)c2cc(NC(=O)c3cc(NC(=O)c4nc(NC(=O)CCCNC(=O)c5cc(NC(=O)c6cc(NC(=O)c7cc(NC(=O)c8cccn8C)cn7C)cn6C)cn5C)cn4C)cn3C)cn2C)cn1C [compound 10] 5.1 (0.6) × 10^9 M^−1
